Value source: paper PMC12586182

Below, each entry is listed with its recorded Percentage inhibition of kinase enzyme activity.
biological target: TBK1 (Homo sapiens); construct: purchased Carna Biosciences; assay: Kinase panel profiling at 1 µmol/L (mobility shift assay, Carna); format: biochemical; details: 1 µmol/L of BTK inhibitor
Sequence (Q9UHD2 whole entry): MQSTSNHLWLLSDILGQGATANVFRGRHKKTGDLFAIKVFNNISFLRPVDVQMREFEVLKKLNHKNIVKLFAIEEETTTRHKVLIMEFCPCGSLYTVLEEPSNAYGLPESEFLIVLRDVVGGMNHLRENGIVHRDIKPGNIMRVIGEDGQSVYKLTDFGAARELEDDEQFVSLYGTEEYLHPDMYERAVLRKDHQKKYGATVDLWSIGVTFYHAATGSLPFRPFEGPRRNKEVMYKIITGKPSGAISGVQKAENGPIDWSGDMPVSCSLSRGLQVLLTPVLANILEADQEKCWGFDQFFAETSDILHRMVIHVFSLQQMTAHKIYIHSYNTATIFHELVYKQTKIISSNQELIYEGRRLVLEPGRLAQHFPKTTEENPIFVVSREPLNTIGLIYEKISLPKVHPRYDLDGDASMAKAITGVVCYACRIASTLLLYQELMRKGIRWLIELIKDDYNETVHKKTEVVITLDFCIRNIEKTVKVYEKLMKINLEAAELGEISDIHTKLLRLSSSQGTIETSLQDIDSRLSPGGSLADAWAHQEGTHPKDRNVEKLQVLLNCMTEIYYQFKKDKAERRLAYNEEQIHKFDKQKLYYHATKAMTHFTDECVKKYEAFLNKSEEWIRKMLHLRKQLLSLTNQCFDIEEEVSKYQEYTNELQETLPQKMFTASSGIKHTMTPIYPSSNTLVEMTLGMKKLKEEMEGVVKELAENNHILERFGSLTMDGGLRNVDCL
Express the result in % but write the number alone.

{"smiles.str": "C=CC(=O)N1CCC[C@@H](n2nc(-c3ccc(Oc4ccccc4)cc3)c3c(N)ncnc32)C1", "units.symbol": "%", "assay.value": 0.83}
{"smiles.str": "O=C(c1ccc(Oc2ccccc2)cc1Cl)c1c[nH]c2ncnc(N[C@@H]3CC[C@@H](CO)OC3)c12", "units.symbol": "%", "assay.value": 1.71}
{"smiles.str": "CC#CC(=O)N1CCC[C@H]1c1nc(-c2ccc(C(=O)Nc3ccccn3)cc2)c2c(N)nccn12", "units.symbol": "%", "assay.value": 2.14}

Okay, next one:
Prompt: Consider the compound shown here: "COc1ccc(F)cc1C(=O)NCc1ccc(-c2nn([C@@H](C)C(F)(F)F)c(N)c2C(N)=O)cc1" What is its recorded Percentage inhibition of kinase enzyme activity?
Completion: 2.58
